Assay: qHTS Assay for NPC1 Promoter Activators; note: nearly all actives have a fitted effect of over 60% in size; note: potency is the fitted concentration of half-maximal effect
Details: Huh7 NPC1 promoter luciferase reporter, 24 h; series mostly up to 9.22 µM
About 7,600 (2.4%) of roughly 320,000 compounds were called active. Inconclusive results (about 3%) are left out. The full list was thinned out, with actives kept by preference.
outcome measure: Potency

O=C(COC(=O)c1c(Cl)cccc1Cl)Nc1cccc(S(=O)(=O)NC2=NCCCCC2)c1    inactive
CN(c1ccccc1)S(=O)(=O)c1cccc(NC(=O)Cc2ccc(Cl)cc2)c1    inactive
Cc1ccc(C)c(NC(=O)COC(=O)CSc2ccccc2)c1    inactive
Cc1ccc(F)cc1S(=O)(=O)Nc1cccc(C(=O)N2CCCC(C(N)=O)C2)c1 (stereo unspecified)    inactive

## Input Data request, read-out Potency, for COc1ccc(CNC(=O)c2ccc3oc(C(C)C)nc3c2)cc1
## Output 3.55 µM (active)

## Input Data request, read-out Potency, for COc1ccc2[nH]c(C(=O)Nc3ccccc3Cl)cc2c1
## Output inactive
